Reference for the values: patent US20100204113A1

test-method-notes: in vitro
test-conditions: human, CEM-SS cells
No end group written: not given here.
property: viability at 10 micrograms per ml (%)
Write the number in % without appending the unit.

Consider the substance HPGSRIVLSLDVPIGLLQILLEQARARAAREQATTNARILARV-NH2 [Stresscopin-related peptide] . State its measured viability at 10 micrograms per ml.
100

###

test-method-notes: Cytotoxicity in the HBV assay (dye uptake)
Type: cell-based
test-conditions: human, HepG2-2.2.15 cells, peptide 10 micrograms per ml, read-out: % Cell Viability
No end group written: not given here.
property: viability at 144 h, 10 micrograms per ml (%)
Write the number in % without appending the unit.

Consider the substance HPGSRIVLSLDVPIGLLQILLEQARARAAREQATTNARILARV-NH2 [Stresscopin-related peptide] . State its measured viability at 144 h, 10 micrograms per ml.
100

###

test-method-notes: in vitro
test-conditions: human, MRC-5 cells
No end group written: not given here.
property: viability at 144 h, 10 micrograms per ml (%)
Write the number in % without appending the unit.

Consider the substance HPGSRIVLSLDVPIGLLQILLEQARARAAREQATTNARILARV-NH2 [Stresscopin-related peptide] . State its measured viability at 144 h, 10 micrograms per ml.
100
